Just for reference, patent US4435404A is where these values come from.

target: cyclic AMP phosphodiesterase (Oryctolagus cuniculus, UniProt G1ST54); construct: the supernatant was collected to use it as a crude enzyme solution; assay: Obstructive action against cyclic AMP phosphodiesterase; settings: rabbit platelet enzyme, 30° C., 20 minutes
Sequence (G1ST54 1-1128): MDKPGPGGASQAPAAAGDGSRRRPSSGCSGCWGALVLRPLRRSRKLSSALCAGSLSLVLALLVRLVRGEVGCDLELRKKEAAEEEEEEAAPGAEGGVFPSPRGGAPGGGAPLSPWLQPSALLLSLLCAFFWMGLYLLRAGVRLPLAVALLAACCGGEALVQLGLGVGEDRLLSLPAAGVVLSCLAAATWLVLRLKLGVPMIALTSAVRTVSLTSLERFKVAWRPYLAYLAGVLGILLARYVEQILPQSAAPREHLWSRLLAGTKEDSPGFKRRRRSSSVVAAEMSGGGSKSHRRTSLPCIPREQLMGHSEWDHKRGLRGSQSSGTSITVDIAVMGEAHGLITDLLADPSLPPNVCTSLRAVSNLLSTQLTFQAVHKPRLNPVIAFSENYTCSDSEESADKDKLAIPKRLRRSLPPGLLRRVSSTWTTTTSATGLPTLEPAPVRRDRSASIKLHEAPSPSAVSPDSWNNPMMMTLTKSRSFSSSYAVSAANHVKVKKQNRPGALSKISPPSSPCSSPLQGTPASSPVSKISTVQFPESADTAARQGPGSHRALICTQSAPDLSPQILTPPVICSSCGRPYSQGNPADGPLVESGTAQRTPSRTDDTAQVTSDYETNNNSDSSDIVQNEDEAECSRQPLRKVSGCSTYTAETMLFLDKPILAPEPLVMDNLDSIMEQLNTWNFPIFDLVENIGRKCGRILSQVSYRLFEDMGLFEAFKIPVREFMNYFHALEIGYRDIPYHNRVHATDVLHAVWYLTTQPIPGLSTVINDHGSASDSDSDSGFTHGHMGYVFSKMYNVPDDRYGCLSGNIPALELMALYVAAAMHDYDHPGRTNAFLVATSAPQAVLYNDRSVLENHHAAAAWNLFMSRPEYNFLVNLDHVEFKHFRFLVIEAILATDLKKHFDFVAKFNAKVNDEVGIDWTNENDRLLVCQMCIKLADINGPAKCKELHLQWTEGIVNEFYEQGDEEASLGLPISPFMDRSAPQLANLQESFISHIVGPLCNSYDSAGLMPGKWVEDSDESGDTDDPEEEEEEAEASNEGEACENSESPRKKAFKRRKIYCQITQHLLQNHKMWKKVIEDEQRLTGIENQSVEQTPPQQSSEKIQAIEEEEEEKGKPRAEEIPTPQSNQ
Exercise: state measured pIC50 for each of the compounds provided.
Numbers only, as −log10 of the molar value.

CCCCN(CC1CCCCO1)C(=O)CCCCOc1ccc2c(c1)CCC(=O)N2 (centres unmarked) [No. 12] = 7.60

Working through the 4 compounds below one at a time, give pIC50 for each.
1. CC(C)Cn1c(=O)n(C)c(=O)c2[nH]cnc21 [1-Methyl-3-isobutylxanthine, 1-methyl-3-isobutylxanthine, reference compound]
2. CCN(C(=O)CCCOc1ccc2[nH]c(=O)ccc2c1)c1ccccn1 [No. 3]
3. O=C(CCCOc1ccc2[nH]c(=O)ccc2c1)N1CCN(c2ccccc2)CC1 [No. 14]
4. CN(Cc1ccco1)C(=O)CCCOc1ccc2[nH]c(=O)ccc2c1 [No. 4]

[6.27, 6.40, 7.28, 6.22]

For each of the items listed, what is its pIC50?
1. O=C1CCc2cc(OCCCC(=O)N3CCN(Cc4ccccc4)CC3)ccc2N1 [No. 15]
2. CC(=O)OC1CCC(N(C)C(=O)CCCOc2ccc3[nH]c(=O)ccc3c2)CC1 (centres unmarked) [No. 26, reference compound]
3. O=C(CCCOc1ccc2[nH]c(=O)ccc2c1)N(CCO)C1CCCCC1 [No. 1]
4. O=C(OCCN(C(=O)CCCOc1ccc2[nH]c(=O)ccc2c1)C1CCCCC1)c1ccccc1 [No. 10]
5. CN(CC1CCCCO1)C(=O)CCCOc1ccc2[nH]c(=O)ccc2c1 (centres unmarked) [No. 6]

1. 7.40
2. 8.18
3. 6.82
4. 7.92
5. 7.28

// pIC50 lookup, key: CN(C(=O)CCCOc1ccc2[nH]c(=O)ccc2c1)C1CCCCC1 [No. 39, reference compound]
7.80

---

What Increasing effect of heart rate was measured for each of the following?
test system: Wistar strain male rats; assay: Test of increasing effect of heart rate; format: in vivo, rat; conditions: 30 mg/kg oral, 60 minutes after the administration
Numbers only, in Beat/min..

CN(CC1CCCCO1)C(=O)CCCOc1ccc2[nH]c(=O)ccc2c1 (stereo not shown) = 40
O=C(CCCOc1ccc2[nH]c(=O)ccc2c1)N(CCO)C1CCCCC1 = 42
O=C(CCCOc1ccc2[nH]c(=O)ccc2c1)N1CCN(c2ccccc2)CC1 = 32

Would you kindly share the measured Increasing effect of heart rate for CN(C(=O)CCCOc1ccc2[nH]c(=O)ccc2c1)C1CCCCC1 [No. 39, reference compound] ?
104

---

test system: ADP-induced aggregation in rabbit platelet; assay: Inhibition effect on ADP-induced aggregation in rabbit platelet; format: cell-based; details: Oryctolagus cuniculus, Platelet; concentration of the test compound solution 10^-6 mole; read-out: Inhibition effect on ADP-induced aggregation
property-measured: inhibition at 1 µM (%)
Answers are plain numbers, in %.

O=C1CCc2cc(OCCCCC(=O)N(CCO)c3ccccc3)ccc2N1 = 22.4
CN(CC1CCCCO1)C(=O)CCCOc1ccc2[nH]c(=O)ccc2c1 (centres unmarked) = 14.7

For the 4 compounds below, give their inhibition at 1 µM values.
1. O=C(CCCOc1ccc2[nH]c(=O)ccc2c1)N1CCN(c2ccccc2)CC1
2. COCCN(C(=O)CCCCOc1ccc2[nH]c(=O)ccc2c1)C1CCCCC1
3. CCC(O)CN(C(=O)CCCCOc1ccc2[nH]c(=O)ccc2c1)C1CCCCCCC1 (centres unmarked)
4. O=C1CCc2cc(OCCCC(=O)N3CCN(C4CCCCC4)CC3)ccc2N1

1: 15.7; 2: 91.9; 3: 40.1; 4: 7

// each compound listed below needs its inhibition at 1 µM
1. O=C1CCc2cc(OCCCC(=O)N3CCN(c4ccccc4)CC3)ccc2N1
2. O=C(CCCOc1ccc2[nH]c(=O)ccc2c1)N(CCO)C1CCCCC1

1. 4.3
2. 45

---

Please provide measured inhibition at 1 µM for the entries that follow.
system: ADP-induced aggregation in rabbit platelet; test: Inhibition effect on ADP-induced aggregation in rabbit platelet; type: cell-based; settings: Oryctolagus cuniculus, Platelet; concentration of the test compound solution 10^-6 mole; read-out: Inhibition effect on ADP-induced aggregation
One number for each entry, in %.

CC(=O)OCCCN(CC1CCCCO1)C(=O)CCCCOc1ccc2c(c1)CCC(=O)N2 (stereo not drawn) [No. 21] = 18.6

Please go through the list and note inhibition at 1 µM for each compound.
1. COc1ccc(CCN(CCO)C(=O)CCCCOc2ccc3[nH]c(=O)ccc3c2)cc1OC [No. 20]
2. CCN(C(=O)CCCOc1ccc2[nH]c(=O)ccc2c1)c1ccccn1 [No. 3]
3. O=C1CCc2cc(OCCCCC(=O)N(CCO)Cc3ccccc3)ccc2N1 [No. 22]
4. O=C(CCCOc1ccc2[nH]c(=O)ccc2c1)N(CCO)C1CCCC(O)C1 (stereo not drawn) [No. 19]
5. O=C(CCCOc1ccc2[nH]c(=O)ccc2c1)N1CCC(c2ccccc2)CC1 [No. 16]
6. CN(Cc1cccs1)C(=O)CCCOc1ccc2[nH]c(=O)ccc2c1 [No. 5]
7. O=C1CCc2cc(OCC(=O)N3CCOCC3)ccc2N1 [No. 65, reference compound]

28.8
10
28.8
12
4.9
7.1
0

So what does the record say about inhibition at 1 µM for O=C1CCc2cc(OCCCCC(=O)N(CCO)CC3CCCCO3)ccc2N1 (stereo not drawn) [No. 13] ?
5.3

---

Field: inhibition at 1 µM. Provide a value for each of the molecules that follow.
system: ADP-induced aggregation in rabbit platelet; experiment: Inhibition effect on ADP-induced aggregation in rabbit platelet; format: cell-based; details: Oryctolagus cuniculus, Platelet; concentration of the test compound solution 10^-6 mole; read-out: Inhibition effect on ADP-induced aggregation
Numbers only, in %.

Study these solved cases before continuing.
O=C(OCCN(C(=O)CCCOc1ccc2[nH]c(=O)ccc2c1)C1CCCCC1)c1ccccc1 [No. 10] = 42.6
CCCCN(CC1CCCCO1)C(=O)CCCCOc1ccc2c(c1)CCC(=O)N2 (centres unmarked) [No. 12] = 8.3
CCC(O)CN(CC1CCCCC1)C(=O)CCCCOc1ccc2c(c1)CCC(=O)N2 (centres unmarked) [No. 7] = 18.6

Batch of 2 molecules: report inhibition at 1 µM for each.
1. O=C1CCc2cc(OCCCCC(=O)N(CCCCO)CC3CCCCC3)ccc2N1 [No. 8]
2. O=C1CCc2cc(OCCCC(=O)N3CCN(Cc4ccccc4)CC3)ccc2N1 [No. 15]

1: 12.2; 2: 25.8

---

tested on: ADP-induced aggregation in rabbit platelet; assay: Inhibition effect on ADP-induced aggregation in rabbit platelet; type: cell-based; conditions: Oryctolagus cuniculus, Platelet; concentration of the test compound solution 10^-4 mole
property-measured: inhibition at 100 µM

Record inhibition at 100 µM per entry; entries follow.
1. O=C(OCCN(C(=O)CCCOc1ccc2[nH]c(=O)ccc2c1)C1CCCCC1)c1ccccc1 [No. 10]
2. CCCCN(CC1CCCCO1)C(=O)CCCCOc1ccc2c(c1)CCC(=O)N2 (stereo not drawn) [No. 12]
3. O=C1CCc2cc(OCCCCC(=O)N(CCO)CC3CCCCO3)ccc2N1 (stereo not drawn) [No. 13]

1: 100%; 2: 100%; 3: 100%

---

system: ADP-induced aggregation in rabbit platelet; assay: Inhibition effect on ADP-induced aggregation in rabbit platelet; format: cell-based; conditions: Oryctolagus cuniculus, Platelet; concentration of the test compound solution 10^-4 mole
property-measured: inhibition at 100 µM (%)
Give bare numbers, in %.

For orientation, consider the following solved cases.
O=C(CCCOc1ccc2[nH]c(=O)ccc2c1)N1CCC(c2ccccc2)CC1 = 100
CCC(O)CN(C(=O)CCCCOc1ccc2[nH]c(=O)ccc2c1)C1CCCCCCC1 (stereo not drawn) = 100
O=C1CCc2cc(OCCCC(=O)Nc3c(Cl)cccc3Cl)ccc2N1 [No. 44, reference compound] = 36.8
O=C1CCc2cc(OCCCC(=O)N3CCN(C4CCCCC4)CC3)ccc2N1 = 100
CN(Cc1cccs1)C(=O)CCCOc1ccc2[nH]c(=O)ccc2c1 = 100

Go through the list and state inhibition at 100 µM for each entry.
1. O=C1CCc2cc(OCC(=O)N3CCOCC3)ccc2N1 [No. 65, reference compound]
2. O=C1CCc2cc(OCCCCC(=O)N(CCO)c3ccccc3)ccc2N1
3. O=C(CCCOc1ccc2[nH]c(=O)ccc2c1)N(CCO)C1CCCCC1
4. COCCN(C(=O)CCCCOc1ccc2[nH]c(=O)ccc2c1)C1CCCCC1
5. CCN(C(=O)CCCOc1ccc2[nH]c(=O)ccc2c1)c1ccccn1
6. CC(=O)OCCCN(CC1CCCCO1)C(=O)CCCCOc1ccc2c(c1)CCC(=O)N2 (stereo not drawn)
7. CN(Cc1ccco1)C(=O)CCCOc1ccc2[nH]c(=O)ccc2c1

1. 13
2. 100
3. 100
4. 100
5. 100
6. 100
7. 85.7
